assaySystem: T1, Anti-CD28 scFv (VH-linker 1-VL) (biotinylated (site not stated))
T1 construct: biotinylated and captured on neutravidin coated plates in the phage ELISA
T1 sequence (scFv, as listed by the source): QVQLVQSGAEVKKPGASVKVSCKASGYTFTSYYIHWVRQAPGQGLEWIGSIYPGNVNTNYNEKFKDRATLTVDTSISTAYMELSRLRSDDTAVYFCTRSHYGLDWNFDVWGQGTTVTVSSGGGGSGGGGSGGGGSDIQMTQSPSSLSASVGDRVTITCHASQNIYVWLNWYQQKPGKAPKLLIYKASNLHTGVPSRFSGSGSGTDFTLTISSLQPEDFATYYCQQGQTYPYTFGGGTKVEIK
protocolNotes: phage ELISA, scFv wells pre-incubated with soluble CD28 (competitor); background signal 0.063
quantityMeasured: Phage binding ELISA CD28 scFv signal in presence of CD28
I only need the number, thanks.

Study these solved cases before continuing.
- binder: "MDWCPRYLWAECFY [Phage-102]"
  valueMeasured: 0.354
- binder: "MDWCPMDLWYQCFN [Phage-85]"
  valueMeasured: 0.187
- binder: "MDWCPPYLWNVCFS [Phage-50]"
  valueMeasured: 0.1

Lookup: Item MDWCPRDLWHECFA [Phage-26] has what recorded Phage binding ELISA CD28 scFv signal in presence of CD28?
Found: 0.277

All values here come from patent US20230357447A1.
